Tested on: N99/pUC21
Test: MIC of amino acids and analogues on M9 agar, strain N99/pUC21
Assay type: cell-based, E. coli
Settings: Escherichia coli; N99/pUC21 (vector control; same data with N99/pUK21); M9 agar (2%), about 10^4 viable cells, doubling increments
# if measured MIC < 100 µg/mL: condition met  # else: condition not met

1. NCCSC[C@H](N)C(=O)O ... condition met

QUERY: Here's an entry: N[C@@H](CCO)C(=O)O . Is its MIC below 100 µg/mL?
RESULT: condition not met

QUERY: Here's an entry: CO[C@H](C)[C@H](N)C(=O)O . Is its MIC below 100 µg/mL?
RESULT: condition met

QUERY: Here's an entry: CN(C)CC(N)C(=O)O (racemic) . Is its MIC below 100 µg/mL?
RESULT: condition met

---

Tested on: N99/pUC21
Assay: MIC of amino acids and analogues on M9 agar, strain N99/pUC21
Assay type: cell-based, E. coli
Details: Escherichia coli; N99/pUC21 (vector control; same data with N99/pUK21); M9 agar (2%), about 10^4 viable cells, doubling increments
measured metric: MIC
Remember to quote the unit after the number.

The value of MIC recorded for N[C@@H](Cc1c[nH]cn1)C(=O)O [L-histidine] when tested on N99/pUC21 reads 5000 µg/mL

The value of MIC recorded for C[C@@H](O)[C@H](N)C(=O)O [L-threonine] when tested on N99/pUC21 reads 30000 µg/mL

The value of MIC recorded for CCC(O)C(N)C(=O)O (stereo not drawn) [AHVA, α-amino-β-hydroxyvaleric-acid] when tested on N99/pUC21 reads 100 µg/mL

The value of MIC recorded for CC(C)[C@H](N)C(=O)O [L-valine] when tested on N99/pUC21 reads 0.5 µg/mL
